- Test system: U251 CNS
- Experiment notes: NCI tumour cell line growth inhibition, 48 h
Would you mind telling me the reported TGI of each entry?

GET /value?item= O=C1C=C(N2CCCC2)C(=O)c2c(O)ccc(O)c21 &field=TGI returns > 1 µM

GET /value?item= COc1ccc(C[C@H]2NC(=O)/C=C/C[C@@H]([C@H](C)[C@H]3O[C@@H]3c3ccccc3)OC(=O)[C@H](CC(C)C)OC(=O)[C@H](C)CNC2=O)cc1 &field=TGI returns > 0.0001 µM

GET /value?item= Cc1c(NC(=S)N/N=C\C(=N/NC(=S)Nc2c(C)n(C)n(-c3ccccc3)c2=O)c2ccccc2)c(=O)n(-c2ccccc2)n1C &field=TGI returns > 100 µM

GET /value?item= N#Cc1nc(C(F)(F)F)oc1N &field=TGI returns > 100 µM

GET /value?item= COC1/C=C\C=C(/C)C(=O)Nc2cc3nc4ccc(Br)cc4oc-3c(c2=O)CC(C)CC(OC)C(O)C(C)/C=C(\C)C1OC(N)=O (configuration not stated) &field=TGI returns 28.7 µM

GET /value?item= O=c1[nH]nc(-c2ccc([N+](=O)[O-])cc2)n1/N=C/c1ccc([N+](=O)[O-])cc1 &field=TGI returns > 100 µM

GET /value?item= C/C=C(\C)C(=O)N[C@H]1[C@@H](OC(C)=O)C[C@]2(C)C3CC[C@@]4(C)C(CC[C@@H]4C(C)N(C)C)C3CCC2[C@H]1O (some centres not stated) &field=TGI returns 18.3 µM

GET /value?item= CCN1C(=O)N(CC)C2C1NN=c1s/c(=C3\C(=O)N(CC(C)C)c4ccccc43)c(=O)n12 (configuration not stated) &field=TGI returns 27.4 µM

GET /value?item= COC(=O)c1ccc(CCC2=CC(=O)C(Br)=CC2=O)cc1 &field=TGI returns 32.5 µM

GET /value?item= CC1(CO)OC1COCc1ccccc1 (configuration not stated) &field=TGI returns > 100 µM

GET /value?item= COC(=O)NC/C=C\c1nc(CC/C=C\C(=O)OC2CC3CC(=O)O[C@H](/C=C/CC(C)C)C[C@H]4CCC(C)C(C[C@H](OC)CC(C2)O3)O4)co1 (some centres not stated) &field=TGI returns > 100 µM

GET /value?item= O=C(Nc1ccc(-n2cc(-c3ccncc3)c(-c3ccc(O)c(Cl)c3)n2)cc1)c1cc(Cl)cc(Cl)c1 &field=TGI returns > 32.5 µM
